- System: CYP11B1 / CYP11B2
- Protocol Text: Selectivity index, ratio of IC50 for inhibition of human CYP11B1 transfected in Chinese hamster V79 cells to IC50 for inhibition of human CYP11B2 transfected in Chinese hamster V79 cells
- Assay type: cell-based
- Assay Context: read-out: Ratio IC50
Measure Name: selectivity ratio
Provide a numeric answer; units are not to be included.

Memo: `Fc1cc2nc(-c3cncc(Cn4ccnc4)c3)n(CC[18F])c2cc1Cl` , reported selectivity ratio: 15.8

* * *

- Tested on: CYP11B1 / CYP11B2
- Protocol Text: Selectivity ratio of IC50 for inhibition of human CYP11B1 stably transfected in mouse Y-1 cells to IC50 for inhibition of human CYP11B2 stably transfected in mouse Y-1 cells
- Format: ADME, cell-based
- Assay Context: read-out: Ratio IC50
Please assign not satisfied whenever selectivity ratio is at or above 50, and satisfied whenever it is below.

Here's what some known entries look like.
In [3]: df
Out[3]:
                                   compound    label_value
0            CCOc1cncc(-c2ccc(C#N)c(F)c2)c1      satisfied
1  CC(O)c1cncc(-c2ccc(C#N)c(F)c2)c1 (centres undefined)      satisfied
2         CCN(C)c1cncc(-c2ccc(C#N)c(F)c2)n1      satisfied
3         CC(=O)c1cncc(-c2ccc(C#N)c(F)c2)c1      satisfied
4        N#Cc1ccc(-c2cncc(-c3ccccc3)c2)cc1F      satisfied
5   Cc1ccc(-c2cncc(-c3ccc(C#N)c(F)c3)n2)cc1  not satisfied
6          N#Cc1ccc(-c2cncc(N3CCCC3)n2)cc1F  not satisfied
7        N#Cc1ccc(-c2cncc(-c3ccccc3)n2)cc1F      satisfied
8               N#Cc1ccc(-c2cncc(Br)c2)cc1F  not satisfied
9  COc1ccc(-c2cncc(-c3ccc(C#N)c(F)c3)n2)cc1      satisfied

INPUT: Does `N#Cc1ccc(-c2cncc(-c3ccccc3F)c2)cc1F` have selectivity ratio strictly under 50?
OUTPUT: satisfied

Each recorded value in this set is attributed to ChEMBL document CHEMBL5329180.
